Measured EC50 of individual entries
# protocol_text: Luminescence Cell-Based Dose Response HTS to Identify Inhibitors of 5'UTR Stem-Loop Driven Prion Protein mRNA Translation in H4 Neuroglioblastoma Cells. [Related pubchem assays: 1827 (Project Summary), 1813 (Primary HTS)]
# Assay type: functional
Activity calls are given as the source filed them.
metric_name: EC50

1) Cc1ccc(NC(=O)CN2CCC(NC(=O)c3cccc(F)c3)CC2)cc1C = 21.6 µM (active)
2) CN(C)CCNC(=O)C(=O)NCC1OCCCN1S(=O)(=O)c1cccs1 (stereo not given) = > 120 µM (not active)
3) O=C(NCCc1ccccc1)c1cnn2c(C(F)F)cc(C3CC3)nc12 = > 120 µM (not active)
4) CCOc1cc(CNCCc2ccc(S(N)(=O)=O)cc2)ccc1OCc1ccc(Cl)cc1 = > 120 µM (not active)
5) COc1cccc(NP(=O)(Oc2ccccc2)Oc2ccccc2)c1 = 59.4 µM (active)
6) C=CCn1c(SCC(=O)c2[nH]c(C)c(C(=O)OC)c2C)nc2scc(-c3ccc(OC)c(OC)c3)c2c1=O = 8.16 µM (active)
7) COc1ccc(CCNC(=O)c2c(N)n(CCN3CCOCC3)c3nc4ccccc4nc23)cc1OC = 13.3 µM (active)
8) COC(=O)c1c(C)oc2ccc(N(C(=O)c3ccncc3)S(=O)(=O)c3ccc(C)cc3)cc12 = 10.9 µM (active)
9) COc1ccc(OC)c(NS(=O)(=O)c2ccc(N3CCCC3=O)cc2)c1 = 7.75 µM (active)
10) COc1ccc(NC(=O)c2cc(S(=O)(=O)N3CCCCC3)c[nH]2)cc1Cl = 18.4 µM (active)

====

# EC50 per record follows
# protocol_text: growth suppression of beta-catenin-knockout colon cells, dose response, cell-based, HCT116, human colon tumor (AID 1045);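 further: HCT116 colon tumor cells with beta catenin knocked out; cells exposed to compound for 60 hours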
# Type: functional
Active and inactive are the calls of the source.
metric_name: EC50

1) COc1ccc(OCC(O)Cn2c(=N)n(Cc3ccccc3)c3ccccc32)cc1 (centres undefined) = 7.38 µM (active)
2) CCc1ccc(OCC(=O)NC(N=C(S)Nc2ccc(C)cc2C)C(Cl)(Cl)Cl)cc1 (centres undefined) = 41.1 µM (active)
3) c1ccc(-n2nnnc2Oc2cccc3cccnc23)cc1 = 20.8 µM (active)
4) COC(=O)c1ccc2c(=O)n(Cc3ccco3)c(SCC(=O)Nc3ccccc3Cl)nc2c1 = 44.3 µM (active)

====

# study_system: Heat shock factor protein 1 (Mus musculus)
# Sequence (P38532 whole entry): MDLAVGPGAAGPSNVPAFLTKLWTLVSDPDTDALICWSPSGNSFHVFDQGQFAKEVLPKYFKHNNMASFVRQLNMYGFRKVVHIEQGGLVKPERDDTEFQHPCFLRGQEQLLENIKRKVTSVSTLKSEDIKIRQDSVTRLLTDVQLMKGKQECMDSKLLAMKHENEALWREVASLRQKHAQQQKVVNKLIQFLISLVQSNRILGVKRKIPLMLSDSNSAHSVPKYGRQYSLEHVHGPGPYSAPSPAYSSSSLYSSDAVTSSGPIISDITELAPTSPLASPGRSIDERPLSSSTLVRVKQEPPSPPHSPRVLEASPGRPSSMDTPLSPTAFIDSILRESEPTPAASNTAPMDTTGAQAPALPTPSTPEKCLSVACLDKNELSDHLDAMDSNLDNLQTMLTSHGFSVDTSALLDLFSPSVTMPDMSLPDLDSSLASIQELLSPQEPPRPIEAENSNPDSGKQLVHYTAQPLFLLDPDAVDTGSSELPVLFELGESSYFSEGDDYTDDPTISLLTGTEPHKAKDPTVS
# protocol_text: HSF1 potentiators in luciferase reporter cells, confirmation, cell-based, NIH3T3, luminescence, dose retest (AID 435004);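 further: stress induced by proteasome inhibitor MG132 added 30 min after compound; luciferase reporter driven by HSF1 response element in NIH3T3 cells; actives raise luminescence as potentiators of the MG132 stress response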
# Format: functional
Activity calls are given as the source filed them.
Outcomes: True (active), False (inactive)

1. COc1cccc(Sc2ccccc2/C=N/NC(N)=O)c1 = False
2. CCOC(=O)c1c(C)n(-c2ccc(C)cc2)c2c(CC(C)=O)c(Br)c(OC)c(O)c12 = False
3. S=c1[nH]c(SCc2ccccc2)nc2ccccc12 = True
4. CC(=O)Nc1ccc(N/C=C/C(=O)C(C)(C)C)cc1 = False
5. COC(=O)CCC(=O)COc1ccc(OC)cc1C#N = True
6. COc1ccc(N/C=C(\C=C\C#N)S(=O)(=O)c2ccccc2)cc1 = False
7. COc1ccccc1/C=C/C(=O)c1cc(Br)ccc1OC(=O)c1ccco1 = True
8. CCn1c(S)nnc1CC(C)C = False
9. CN(Cc1ccccc1)c1nc(N)c([N+](=O)[O-])c(NCc2ccccc2)n1 = False
10. O=C(c1ccc(Cl)c(S(=O)(=O)NCc2ccco2)c1)N1CCN(c2ccccc2F)CC1 = False
11. C=CC[n+]1c(-c2ccc(OC)cc2)csc1NNC(=O)Nc1ccccc1 = False
12. COc1ccc(Cl)cc1N(CC(=O)Nc1ccccc1SC)S(C)(=O)=O = False

====

# study_system: Streptokinase A (Streptococcus pyogenes serotype M1, UniProt P10520)
# Sequence (P10520 whole entry): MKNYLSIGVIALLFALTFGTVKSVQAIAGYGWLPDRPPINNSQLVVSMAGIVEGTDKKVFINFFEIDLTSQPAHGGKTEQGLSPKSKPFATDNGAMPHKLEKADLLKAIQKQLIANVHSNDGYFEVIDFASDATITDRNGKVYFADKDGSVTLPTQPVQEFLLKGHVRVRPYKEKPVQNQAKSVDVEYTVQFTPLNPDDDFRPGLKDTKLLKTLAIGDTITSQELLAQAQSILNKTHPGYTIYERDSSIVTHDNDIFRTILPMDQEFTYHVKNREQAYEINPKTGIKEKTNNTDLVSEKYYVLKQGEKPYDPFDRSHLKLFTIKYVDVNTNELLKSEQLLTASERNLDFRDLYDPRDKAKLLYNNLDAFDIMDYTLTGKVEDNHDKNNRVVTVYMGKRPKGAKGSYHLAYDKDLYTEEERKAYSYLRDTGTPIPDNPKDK
# protocol_text: S. pyogenes streptokinase expression inhibitors, potency, dose response, plasminogen activation absorbance, OD405 (AID 1914);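 further: secreted streptokinase activity via plasminogen activation per viability signal from cell pellet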
# Type: functional, Streptococcus pyogenes M1 GAS
Calls of active or inactive are those of the source.
Entries and their EC50
metric_name: EC50

1. Cc1cccc(N2CCN(C(=O)c3ccc4nc(N5CCCCC5)sc4c3)CC2)c1C = 14.6 µM (active)
2. CCn1c(O)c(/C=N/N=C/c2ccccc2)c2ccc(C3=NNC(=O)CC3)cc21 = > 150 µM (not active)
3. O=C(Nc1cc(S(=O)(=O)Nc2ccc(Cl)cc2)ccc1N1CCCCC1)c1ccc(F)cc1 = 5.17 µM (active)
4. O=[N+]([O-])c1cc(Cl)cc(/C=N\Nc2ccccn2)c1O = 11.1 µM (active)
5. CN(c1ccccc1)c1nc(N2CCCC2)nc(-n2ccnc2)n1 = 75.6 µM (active)

====

# protocol_text: Luminescence Cell-Based Dose Retest to Confirm Inhibitors of Cancer Stem Cells. [Related pubchem assays (depositor defined):AID2717, AID2721]
# Format: functional
# condition_notes: Homo sapiens
The source made the active and inactive calls.
Outcomes: active, inactive

1) CN(C)CCCn1c(=S)[nH]c2sc3c(c2c1=O)CCCC3 = inactive
2) CC/C(=N/NC(=O)c1ccccc1O)c1c(C)nn(-c2ccccc2)c1O = active
3) CCOC(=O)c1c(NC(=O)C2COc3ccccc3O2)sc2c1CC(C)(C)NC2(C)C (centres undefined) = active
4) Cc1ccc(NS(=O)(=O)c2cc([N+](=O)[O-])ccc2NN=C(S)Nc2cc(C)ccc2C)c(C)c1 = active

====

# System: BJ
# protocol_text: cytotoxicity toward BJ-TERT-LT-ST fibroblasts, dose response, cell-based, RAS-independent, luminescence (AID 1935);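 further: BJ fibroblasts immortalized with TERT plus LT and ST oncogenes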
# Type: functional
# condition_notes: Homo sapiens
Active and inactive are the calls of the source.
Reported EC50 values for the following molecules.
metric_name: EC50

1. N#Cc1ccsc1NC(=O)CCc1ccccc1 = 18.1 µM (active)
2. CCN1/C(=C/C=C/c2oc3ccc(-c4ccccc4)cc3[n+]2CC)Oc2ccc(-c3ccccc3)cc21 = 3.42 µM (inconclusive)
3. Cc1cccc(NS(=O)(=O)c2ccc(-c3cnc(C4CC4)o3)cc2)c1C = 2.88 µM (inconclusive)
4. O=C(/C=C/Sc1nc[nH]n1)c1ccc(Cl)cc1 = 12.3 µM (active)
5. COc1ccc(NC(=O)CN(C)S(=O)(=O)c2ccc3nc(O)oc3c2)cc1 = 47.8 µM (active)

====

Catalogue of CC50 readings, one per entry.
# protocol_text: HEp-2 cell cytotoxicity, dose response, cytotoxicity control for RSV inhibitor project, HTS (AID 2410)
# Type: functional
# condition_notes: human respiratory syncytial virus
The source made the active and inactive calls.
metric_name: CC50

1. CCc1ccc(-n2c(SCc3cc(=O)n4cc(Br)ccc4n3)nc3nncc-3c2O)cc1 = 17 µM (active)
2. CC(C)OC(=O)c1ccc(NC(=O)c2cncc(Br)c2)cc1 = > 50 µM (active)
3. CCN(C(=O)c1cc2cc3ccc(C)cc3nc2o1)c1ccc(OC)cc1 = > 50 µM (active)
4. Cc1ccc(S(=O)(=O)N2CCC(C(=O)Nc3ccc(C(C)C)cc3)CC2)cc1 = 13 µM (active)
5. O=C(O)c1cccc(NC(=S)NC(=O)c2ccc(-c3ccc(Cl)cc3)o2)c1 = 27.8 µM (active)

====

# study_system: Rac GTPase-activating protein 1 (Homo sapiens)
# Sequence (Q9H0H5 whole entry): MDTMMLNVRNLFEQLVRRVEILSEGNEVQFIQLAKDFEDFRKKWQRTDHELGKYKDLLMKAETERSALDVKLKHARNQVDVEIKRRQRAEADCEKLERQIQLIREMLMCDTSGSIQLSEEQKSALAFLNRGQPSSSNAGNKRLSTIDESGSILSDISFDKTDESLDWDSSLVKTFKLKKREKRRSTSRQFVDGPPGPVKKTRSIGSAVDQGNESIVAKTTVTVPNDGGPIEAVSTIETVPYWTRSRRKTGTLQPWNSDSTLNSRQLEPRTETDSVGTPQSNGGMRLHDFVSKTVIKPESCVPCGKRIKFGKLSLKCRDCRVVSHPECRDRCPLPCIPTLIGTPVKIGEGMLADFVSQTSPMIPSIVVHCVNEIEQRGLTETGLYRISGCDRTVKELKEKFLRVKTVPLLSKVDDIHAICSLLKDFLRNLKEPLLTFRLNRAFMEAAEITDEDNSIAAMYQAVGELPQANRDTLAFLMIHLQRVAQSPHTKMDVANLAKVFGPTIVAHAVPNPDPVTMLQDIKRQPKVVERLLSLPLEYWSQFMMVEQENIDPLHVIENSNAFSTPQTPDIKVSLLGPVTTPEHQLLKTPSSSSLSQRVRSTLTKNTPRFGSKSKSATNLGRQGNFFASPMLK
# protocol_text: MgcRacGAP GTPase-activating activity inhibitors, confirmation, biochemical, ADP Hunter fluorescence, primary and confirmatory (AID 624330)
# Type: functional
Active and inactive are the calls of the source.
metric_name: IC50

1) O=C(CNCc1cccs1)Nc1ccc(N2CCCCCC2)cc1 = 107 µM (active)
2) O=C(CNS(=O)(=O)c1ccccc1)N/N=C/c1ccc(O)cc1 = 60 µM (active)
3) Sc1nnc(-c2ccncc2)n1/N=C/C=C/c1ccco1 = 81.9 µM (active)
4) COc1cc(OC)cc(C(=O)N2CCN(Cc3ccccc3Br)CC2)c1 = 325 µM (active)
5) O=C(Cn1sc2ccccc2c1=O)Nc1ccccc1 = 73.1 µM (active)
6) COc1cc(/C=C/C(=O)OCC(=O)Nc2c(C)n(C)n(-c3ccccc3)c2=O)ccc1O = 63.9 µM (active)
7) CN(c1ccccc1)c1ccc(/C=N/N2CCOCC2)cc1 = 37.2 µM (active)
8) c1ccc(CC2CCN(Cc3ccccn3)CC2)cc1 = 216 µM (active)
9) O=C1Nc2ccccc2C1=Nc1ccc2[nH]c3ccccc3c2c1 = 16.6 µM (active)
10) Cc1csc(=O)n1CC(=O)OC(C)C(=O)Nc1ccc(N(C)C)cc1 (stereo unspecified) = 51.4 µM (active)
11) COc1cc(/C=C(/NC(=O)c2ccccc2)C(=O)Nc2ccc(O)cc2)c([N+](=O)[O-])cc1OC = 55.7 µM (active)

====

# study_system: DNA repair protein RAD52 homolog (Homo sapiens, UniProt P43351)
# Sequence (P43351 whole entry): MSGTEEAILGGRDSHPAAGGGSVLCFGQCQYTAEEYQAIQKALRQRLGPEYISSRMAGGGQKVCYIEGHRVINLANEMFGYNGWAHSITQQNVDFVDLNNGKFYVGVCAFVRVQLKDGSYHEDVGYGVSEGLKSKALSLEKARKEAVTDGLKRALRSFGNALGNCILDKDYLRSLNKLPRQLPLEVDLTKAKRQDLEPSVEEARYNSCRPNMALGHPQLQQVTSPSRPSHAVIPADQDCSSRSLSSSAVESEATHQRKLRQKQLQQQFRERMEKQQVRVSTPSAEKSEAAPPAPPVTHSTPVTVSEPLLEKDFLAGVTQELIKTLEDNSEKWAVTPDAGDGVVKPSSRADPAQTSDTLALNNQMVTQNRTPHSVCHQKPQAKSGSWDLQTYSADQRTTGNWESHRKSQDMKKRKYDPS
# Format: functional, biochemical
Calls of active or inactive are those of the source.
Measured AC50, listed per entry for reference.
metric_name: AC50

1) CN(C)CCCn1c(=S)[nH]c2sc3c(c2c1=O)CCCC3 = 5.83 µM (active)
2) CCN(CC)CCNC(=O)c1cc2c(-c3cccc(OC)c3)nn(C)c2s1 = 3.79 µM (active)
3) Cc1ccc2nc(N(CCCN(C)C)C(=O)c3ccc(S(=O)(=O)N4CCCCCC4)cc3)sc2c1 = 30.7 µM (active)
4) CN(C)CCNC(=O)c1cccc(-c2cnc3c(NC=O)cc(-c4ccc(C(=O)N5CCOCC5)cc4)cn23)c1 = 9.04 µM (active)

Data credit: ChEMBL document CHEMBL1201862
